# method summary: NCI Yeast Anticancer Drug Screen. Data for the bub3 strain (AID 167)
# condition description: S. cerevisiae bub3 mutant strain, at 11.0 µM, stronger effect = higher value
The panel holds about 79,000 compounds, 15% with a hit somewhere; the sample as a whole holds those more often. Calls of active or inactive are those of the source. Rule as the data show it: active = growth inhibition above about 70%; inactive = the rest.
Attribute: growth inhibition

Below: 2 molecules and their reported growth inhibition.
COC(=O)CC1(O)C(/C=C/c2ccccc2)C(C(=O)OC)C(=O)C(C(=O)OC)C1C(=O)OC (configuration not stated)    -2% (inactive)
COc1cc(C2SCC(=O)N2c2ccc(-c3ccc(-n4c(-c5ccccc5)nc5ccccc5c4=O)cc3)cc2)ccc1O (configuration not stated)    19% (inactive)

Request the reported growth inhibition associated with `COc1ccc(C(=O)Oc2ccccc2Br)cc1`
-2% (inactive)

Another: C[CH2][Sn]([CH2]C)([O]C(=O)C(N)Cc1ccccc1)[O]C(=O)C(N)Cc1ccccc1 (configuration not stated)
-39% (inactive)

Another: `CCCCCCSc1ncnc2[nH]ncc12`
9% (inactive)

Another: `Nc1cc(N)c(N=Nc2cccc3c(S(=O)(=O)O)cccc23)cc1N=Nc1cc([N+](=O)[O-])ccc1O`
10% (inactive)

Another: `C/C=C/SC(=Nc1ccccc1)Nc1ccccc1`
7% (inactive)

----------
# method summary: NCI Yeast Anticancer Drug Screen. Data for the bub3 strain (AID 167)
# condition description: S. cerevisiae bub3 mutant strain, at 5.0 µM (retest, dose inferred, filed as 0.5), stronger effect = higher value
The panel holds about 79,000 compounds, 15% with a hit somewhere; the sample as a whole holds those more often.
Attribute: growth inhibition
Provide only the numeric value, understood in %.

Below: 2 molecules and their reported growth inhibition.
Nc1ccc(F)cc1S    61
CC(O)=NC(Cc1ccc2ccccc2c1)C(O)=NC(Cc1ccc(Cl)cc1)C(O)=NC(Cc1c[nH]c2ccccc12)C(O)=NC(CO)C(O)=NC(Cc1ccc(O)cc1)C(O)=NC(CCCN=C(N)N)C(O)=NC(CC(C)C)C(O)=NC(CCCN=C(N)N)C(=O)N1CCCC1C(O)=NC(C)C(=N)O (centres undefined)    39

Request the reported growth inhibition associated with `Nc1ccc2c(c1)C(=O)c1ccc(F)cc1-2`
-13

Another: O=C(c1ccc([N+](=O)[O-])cc1)C1N=NCC1c1ccccc1 (centres undefined)
-3

----------
Attribute: growth inhibition
# method summary: NCI Yeast Anticancer Drug Screen. Data for the bub3 strain (AID 167)
# condition description: S. cerevisiae bub3 mutant strain, at 50.0 µM (retest, dose inferred, filed as 5.0), stronger effect = higher value
Compounds without any hit were thinned out: in the full panel of roughly 79,000, 15% have a hit.
Provide only the numeric value, understood in %.

Below: 8 compounds and their reported growth inhibition.
O=[N+]([O-])c1cccc2nc3ccccc3c(NCCC[N+]3([O-])CCCCC3)c12    86
COc1cc2ccnc(-c3c4ccccc4c(N)c4c(OC)c(OC)ccc34)c2cc1OC    -3
O=C1N=C2SC=C(NC(=S)Nc3ccccc3)N2NC12c1ccccc1-c1ccccc12    46
COC(C(O)CO)C(O)C(O)C(=O)NNc1ccccc1 (stereo not given)    97
Nc1ccn(C2OC(COP(=O)(O)O)C(O)C2O)c(=O)n1 (stereo not given)    -4
Cc1c2cccc(Sc3ccccc3)c2c2c3c(cccc13)[S+](c1ccccc1)C2 (stereo not given)    97
CCCCCCC(O)CNCc1ccnc2ccc(OC)cc12 (stereo not given)    63
CCCCCCCCCCCCCCCCOP(=O)(O)OCC(N)C(=O)O (stereo not given)    99

Request the reported growth inhibition associated with O=C1CSC(c2cccc(Cl)c2)N1c1ccc(-c2ccc(-n3c(-c4ccccc4)nc4ccccc4c3=O)cc2)cc1 (stereo not given)
85

Another: `CC(C)(C)CC(C)(C)c1cc(O)c(O)c(CN2CCCCC2)c1`
59

----------
# method summary: NCI Yeast Anticancer Drug Screen. Data for the rad50EPP+ strain (AID 151);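 also: 0% = growth of vehicle-treated control cultures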
# condition description: S. cerevisiae rad50 mutant strain, at 100.0 µM, stronger effect = higher value
The panel holds about 79,000 compounds, 15% with a hit somewhere; the sample as a whole holds those more often.
In this scheme, each record receives a class according to its growth inhibition; the ranges are A (below 20%), B (20% to below 70%), C (70% or more)

Here are 5 compounds together with their reported answers.
CC1OC(O[C@H]2/C=C/C=C/C=C/C=C/C=C/C=C/C=C/[C@H](C)[C@@H](O)[C@@H](C)[C@H](C)OC(=O)C[C@H](O)C[C@H](O)CC[C@@H](O)[C@H](O)C[C@H](O)C[C@]3(O)C[C@H](O)[C@@H](C(=O)O)[C@H](C2)O3)C(O)C(N)C1O (stereo not given in full)    C
O=[N+]([O-])c1cc[n+]([O-])cc1    C
CCN(CC)CCNc1ccc2ncn3c4cc(OC)c(OC)c(=O)c4c(O)c1c23    B
O=C1/C(=C/c2ccccc2)CCCC1CN1CCCCC1 (stereo not given)    B
CCOC(=O)c1[nH]cc(C)c1-c1cccn1-c1ccc(Cl)cc1[N+](=O)[O-]    B

Exam item: assign `O=C1N=C2SC=C(NC(=S)Nc3ccccc3)N2NC12c1ccccc1-c1ccccc12` to the correct category.
A

Another: O=C1c2cccnc2C(=O)C2C3C=CC(C3)C12 (stereo not given)
C

Another: `CCCCCCSc1ncnc2[nH]ncc12`
A

Another: O=C(O)CCCC1CCCc2c1ccc1ccccc21 (stereo not given)
C

----------
# method summary: NCI Yeast Anticancer Drug Screen. Data for the mec2-1 strain (AID 157)
# condition description: S. cerevisiae mec2-1 strain, at 3.7 µM, stronger effect = higher value
The panel holds about 79,000 compounds, 15% with a hit somewhere; the sample as a whole holds those more often.
measured property: growth inhibition (%)
Provide only the numeric value, understood in %.

Below: 4 compounds and their reported growth inhibition.
COC1=C(OC)C(=O)C(Sc2ccc3ccccc3c2)=CC1=O    -40
CN(C)N=Nc1ccccc1C(=O)NC#N    0
C=C1CCC(O)C/C1=C/C=C1\CCCC2(C)C1CCC2C(C)CCCC(C)C (stereo not drawn)    -25
CCCC(=O)Oc1ccc(/C=N/NC(N)=S)nc1    -2

Request the reported growth inhibition associated with CC(=O)OCC1OC2OC(=O)NC2C(OC(C)=O)C1OC(C)=O (stereo not drawn)
-2

Another: `COc1cccc(/C=N/C(/N=C/c2cccc(OC)c2O)c2cccc(OC)c2O)c1O`
2

Another: `CS(=O)(=O)OCCN(CCOS(C)(=O)=O)c1ccc(C=Nc2ccc(-c3csc(COc4ccccc4)n3)cc2)cc1`
-18

Another: `CC1(C)CC(=O)C(/C=N/c2nc(-c3ccccc3)cs2)=C(O)C1`
2

Another: `CCOc1c(N=Nc2ccccc2OC)c(C)nn1C(=S)S`
0

Another: `Nc1ncc(-c2ccc(Br)cc2)s1`
-1

Another: OC(/C=C/c1ccccc1)(Cc1cc(-c2ccccc2)n[nH]1)c1ccccc1 (stereo not drawn)
11

Another: `CNC(=O)OCc1c(COC(=O)NC)c(-c2ccc(Cl)cc2)n2c1CCC2`
-41

Another: C[Si](C)(C)/C=C/CCNC(C#N)c1ccccc1 (stereo not drawn)
-23

Another: `CC(=O)Nc1ccc2c(c1)-c1ccccc1C2=O`
2

Another: CCCCN(CCCC)CCC(O)c1cc2c(Cl)cc(Cl)cc2c2cc(C(F)(F)F)ccc12 (stereo not drawn)
8

Another: `COc1ccc(/C=C2\NC(=S)N(/C=C3\C(=O)Oc4ccccc4C3=O)C2=O)cc1`
1

Another: O=C1C=C(c2ccccc2)OC1(c1ccccc1)N1CCOCC1 (stereo not drawn)
4

Another: `CCO/C(C)=C(/C#N)C(N)=S`
1

Another: `O=C1Nc2ccccc2/C1=C/c1ccccc1`
-5

Another: CC(=O)OC1CC2C(C)(C)C(=O)C=C[C@]2(C)C2CCC3(C)C(=CCC3[C@H](CO)C[C@H](O)C(=O)C(C)(C)O)[C@]12C (stereo partly drawn)
-56

----------
# method summary: NCI Yeast Anticancer Drug Screen. Data for the wt2 strain (AID 169);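 also: 0% = growth of vehicle-treated yeast cultures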
# condition description: S. cerevisiae wt2 strain growth inhibition; at 11.0 µM; stronger effect = higher value
The panel holds about 79,000 compounds, 15% with a hit somewhere; the sample as a whole holds those more often.
Attribute: growth inhibition
Provide only the numeric value, understood in %.

Below: 5 molecules and their reported growth inhibition.
CS(=O)(=O)OCCN(CCOS(C)(=O)=O)c1ccc(C=Nc2ccc(-c3csc(COc4ccccc4)n3)cc2)cc1    54
O=[N+]([O-])c1ccc(N/N=C/Cc2ccccc2)c([N+](=O)[O-])c1    5
NC(=S)NC(=S)Nc1ccccc1    -1
Cc1nc2ccc(N=NN(C)C)cc2[nH]1    6
NC(N)=NS(=O)(=O)c1ccc(Nc2c3ccccc3nc3c(C(=O)NCCO)cccc23)cc1    1

Here is another molecule to look at.
Request the reported growth inhibition associated with `NC(=O)c1c([N+](=O)[O-])cc(C(F)(F)F)cc1[N+](=O)[O-]`
3

These data points were gathered from PubChem BioAssay (NCI).
